Taken from the supplement of paper PMC9112550.

System: Escherichia coli TOP10;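 also: peptides expressed intracellularly from a pBAD plasmid library in pooled LB shake-flask culture, induced with 0.3% L-arabinose, DNA abundance read by NGS, three biological replicates, DESeq2 with apeglm shrinkage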
Test Summary: shrunken log2 fold change of peptide-encoding DNA abundance (4.5 h post-induction vs induction); higher = less antimicrobial activity (less host growth inhibition)
Condition Notes: time post-induction: 4.5 h; library: site-saturation at positions 5, 18, 19, 20
Measured shrunken log2 fold change, listed per entry.
Reply with the value as a number alone.

>>> df
            residue_string      measurement_target  observed_measurement
0  RRIRTRPPRLPRPRPRPHVQPRP  Escherichia coli TOP10                -0.156
1  RRIRSRPPRLPRPRPRPNWYPRP  Escherichia coli TOP10                -0.382
2  RRIRERPPRLPRPRPRPEIAPRP  Escherichia coli TOP10               -0.0389
3  RRIRERPPRLPRPRPRPRRMPRP  Escherichia coli TOP10                 0.119

Q) Item `RRIRQRPPRLPRPRPRPGYCPRP` has what recorded shrunken log2 fold change?
A) -0.0255

Q) Item `RRIRYRPPRLPRPRPRPTHQPRP` has what recorded shrunken log2 fold change?
A) -0.161

Q) Item `RRIRLRPPRLPRPRPRPCCCPRP` has what recorded shrunken log2 fold change?
A) -0.117

Q) Item `RRIRRRPPRLPRPRPRPCTGPRP` has what recorded shrunken log2 fold change?
A) 0.0659
